The reported numbers originate from PubChem BioAssay (NCI).

test system: UACC-62 melanoma; assay: NCI-60 one-dose screen, 48 h (100 = growth as untreated, 0 = no growth, -100 = all killed); settings: 10 µM unless noted
Compounds without any hit were thinned out: in the full panel of roughly 83,000, 20% have a hit.
result.type: growth (%)
// return numeric value only (unit: %, not printed)

In the examples that follow, each entry is paired with its recorded growth.
molecule	growth, %
CN(CCCNC(=O)CCOCCOCCOCCNC(=O)Cc1ccc2ccc3cccc4ccc1c2c34)CCCNc1cc(-c2ccc3ccccc3c2)nc2ccccc12	-65.9
C=C1C(=O)O[C@H]2[C@H]1CC/C(COC(=O)c1ccc(C(=O)O)s1)=C\CC[C@@]1(C)O[C@@H]21	3.21
Oc1ccc(/C=C/c2ccc(O)cc2)cc1	37.4
COc1ccc(/C=C(/c2ccccc2)[N+](=O)[O-])c(OC)c1	-53.9
O=C(CCSc1nnc2n(Cc3ccccc3)c(=O)c3c4c(sc3n12)CCCC4)N1CCN(c2ccccc2)CC1	108

Exam item: Returns the measured growth for the input molecule. Input: Nc1nc2c(c3ncccc13)C(c1cccc(Cl)c1)Cc1ncccc1-2 (stereo not given)
Marked response: 22.1

Exam item: Returns the measured growth for the input molecule. Input: `Cc1ccc(C)c(/C=C2\CN(C(=O)OC(C)(C)C)C/C(=C\c3cc(C)ccc3C)C2=O)c1`
Marked response: 37.3

Exam item: Returns the measured growth for the input molecule. Input: `Cc1ccc(-c2nc(N3CCNCC3)c3oc(-c4ccc(C)cc4)nc3n2)cc1`
Marked response: 95.4

Exam item: Returns the measured growth for the input molecule. Input: `CCOC(=O)C(Cc1ccc(OC)cc1)C(=O)OCC`
Marked response: 33.4

Exam item: Returns the measured growth for the input molecule. Input: `O=C(/C=C(O)/C=C/c1cccc2[nH]ccc12)/C=C/c1cccc2[nH]ccc12`
Marked response: 68

Exam item: Returns the measured growth for the input molecule. Input: `COC(=O)c1c2c(c(C)[n+]([O-])c1C)C(=O)C(NCc1cccc(Cl)c1)=CC2=O`
Marked response: -42.6

Exam item: Returns the measured growth for the input molecule. Input: `CCOC(=O)c1c(C)nc2c(c1N)/C(=C/c1ccc(OC)cc1)C(=O)N2Cc1ccccc1`
Marked response: 48.8

Exam item: Returns the measured growth for the input molecule. Input: COc1ccc(C2=CN3CC=CC3CC2=O)cc1 (stereo not given)
Marked response: 105

Exam item: Returns the measured growth for the input molecule. Input: `N#C/C(=C\c1cn(Cc2ccccc2)c2ccccc12)C(=O)Nc1ncc(Cc2ccccc2Cl)s1`
Marked response: -40.4

Exam item: Returns the measured growth for the input molecule. Input: `O=c1nc(-c2ccccc2)c2cc(-c3ccc(C(F)(F)F)nc3)ccc2[nH]1`
Marked response: 97.3

====

system: HCT-116 colon; assay: NCI-60 one-dose screen, 48 h (100 = growth as untreated, 0 = no growth, -100 = all killed); conditions: 10 µM unless noted
About 83,000 compounds went through this panel and 20% of them were active in at least one assay; those are over-represented in the sample as a whole.
Note to self: use Criterion met only for growth readings below -10%; a reading exactly at -10% still gets Criterion not met.

See these solved cases before continuing.
query.smiles	label.class
CCOC(=O)C#Cc1c(C(=O)OCC)nnn1Cc1ccc(C(F)(F)F)cc1	Criterion not met
O=C(NCc1cccc(CNC(=O)Nc2nc3ccccc3[nH]2)c1)Nc1nc2ccccc2[nH]1	Criterion met
COc1ccc2c(c1)/C(=N/c1n[nH]c(=S)s1)C(=O)N2	Criterion not met
CN1CCN(CCOc2ccc(-c3cnc4c(-c5cccc(F)c5F)cnn4c3)cc2)CC1	Criterion met

Exam item: Bench note: check whether `CCOC(=O)c1cc(C(=O)c2cc(OC)c(OC)c(OC)c2)n2ccccc12` shows growth below -10%
Marked response: Criterion not met
